Recorded cAMP antagonism nM (IC50, CisBio assay) values for a group of binders are listed next.
Target: T1, human GIP receptor (human, UniProt P48546 22-466)
T1 sequence (looked up): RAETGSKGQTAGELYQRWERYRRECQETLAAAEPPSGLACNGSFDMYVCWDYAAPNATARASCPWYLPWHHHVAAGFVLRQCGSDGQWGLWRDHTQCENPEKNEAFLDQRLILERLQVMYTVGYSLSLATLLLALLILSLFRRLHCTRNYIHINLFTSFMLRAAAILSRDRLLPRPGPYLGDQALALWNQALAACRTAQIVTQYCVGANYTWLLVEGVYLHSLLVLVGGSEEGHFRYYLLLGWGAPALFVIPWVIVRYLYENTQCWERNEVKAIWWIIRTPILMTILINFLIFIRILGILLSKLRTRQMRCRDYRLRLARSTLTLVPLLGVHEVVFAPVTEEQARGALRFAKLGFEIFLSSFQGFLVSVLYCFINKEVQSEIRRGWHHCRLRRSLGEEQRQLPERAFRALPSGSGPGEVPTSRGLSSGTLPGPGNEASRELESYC
Assay: cell-based or functional assay
Starred links: 1 amine or outer side, 2 acyl side, 3 side chain; linkers in the order of their positions; H or OH if unused. Non-standard residues stand in square brackets, D forms with d. Groups on a side chain read outwards from the residue. No end group written: not given here. *: point of attachment. C18 diacid = O=C(O)CCCCCCCCCCCCCCCCC(=O)*; C16 diacid = O=C(O)CCCCCCCCCCCCCCC(=O)*; γGlu = O=C(O)[C@H](CCC(=O)[*:2])N[*:1]; Glutaryl = O=C(CCCC(=O)[*:2])[*:1]; Nle = CCCC[C@H](N)C(=O)O; AEEA = NCCOCCOCC(=O)O; Aib = CC(C)(N)C(=O)O

# Binder, cAMP antagonism nM (IC50, CisBio assay) [nM]
rows = [
    ("EGTFISDYSI[Aib][Nle]DKIK(C16 diacid)QQDFVEWLLAQKPSSGAPPPS-OH [AT667]", 0.736),
    ("Glutaryl-GTFISDYSIA[Nle]DKIK([AEEA-AEEA-γGlu-C18 diacid])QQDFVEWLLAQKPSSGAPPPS-OH [AT702]", 3.55),
    ("EGTFISDYSI[Aib]LDKIK([AEEA-AEEA-γGlu-C18 diacid])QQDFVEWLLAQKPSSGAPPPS-OH [AT685]", 2),
    ("Glutaryl-GTFISDYSIA[Nle]DKIK(C16 diacid)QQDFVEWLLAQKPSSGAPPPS-OH [AT700]", 0.708),
    ("EGTFISDYSI[Aib]LDKIK(C16 diacid)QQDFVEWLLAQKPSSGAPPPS-OH [AT666]", 0.266),
]
